Reference for the values: patent US20080044360A1

Target: T1, rat collagen, acid soluble, type I, rat tail (Upstate 08-115) (rat, UniProt P02454 152-1207; P02466 86-1125)
T1 construct: tissue extract, gelled and dried in wells; also called dried rat collagen
T1 sequence (P02454 152-1207, chain 1 of 2): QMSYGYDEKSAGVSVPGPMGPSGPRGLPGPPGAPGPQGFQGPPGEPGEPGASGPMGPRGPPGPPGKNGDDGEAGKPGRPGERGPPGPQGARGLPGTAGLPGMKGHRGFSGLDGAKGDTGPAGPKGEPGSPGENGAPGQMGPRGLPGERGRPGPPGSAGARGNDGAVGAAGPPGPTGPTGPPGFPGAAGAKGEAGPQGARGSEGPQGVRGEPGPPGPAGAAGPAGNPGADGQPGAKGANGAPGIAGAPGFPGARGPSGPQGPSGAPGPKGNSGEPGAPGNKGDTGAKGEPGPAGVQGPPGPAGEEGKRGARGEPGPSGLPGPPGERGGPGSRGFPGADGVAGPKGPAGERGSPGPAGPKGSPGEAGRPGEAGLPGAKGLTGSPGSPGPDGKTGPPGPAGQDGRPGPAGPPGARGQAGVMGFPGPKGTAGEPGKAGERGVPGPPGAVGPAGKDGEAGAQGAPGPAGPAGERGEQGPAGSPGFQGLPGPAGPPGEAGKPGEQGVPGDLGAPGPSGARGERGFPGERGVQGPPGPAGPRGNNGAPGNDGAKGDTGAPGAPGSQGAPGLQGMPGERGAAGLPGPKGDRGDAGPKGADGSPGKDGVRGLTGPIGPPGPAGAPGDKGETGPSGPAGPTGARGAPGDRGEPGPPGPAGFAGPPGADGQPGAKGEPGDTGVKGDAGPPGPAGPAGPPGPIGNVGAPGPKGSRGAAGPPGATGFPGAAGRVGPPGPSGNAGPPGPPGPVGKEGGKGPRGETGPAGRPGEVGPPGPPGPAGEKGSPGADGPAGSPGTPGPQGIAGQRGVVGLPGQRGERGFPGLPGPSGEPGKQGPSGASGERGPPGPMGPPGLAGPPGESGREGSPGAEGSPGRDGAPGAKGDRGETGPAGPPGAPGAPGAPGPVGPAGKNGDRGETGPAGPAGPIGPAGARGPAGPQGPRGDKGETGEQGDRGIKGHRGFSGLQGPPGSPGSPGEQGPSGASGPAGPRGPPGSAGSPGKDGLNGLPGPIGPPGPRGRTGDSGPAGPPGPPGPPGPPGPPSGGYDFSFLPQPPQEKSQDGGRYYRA
T1 sequence (P02466 86-1125, chain 2 of 2): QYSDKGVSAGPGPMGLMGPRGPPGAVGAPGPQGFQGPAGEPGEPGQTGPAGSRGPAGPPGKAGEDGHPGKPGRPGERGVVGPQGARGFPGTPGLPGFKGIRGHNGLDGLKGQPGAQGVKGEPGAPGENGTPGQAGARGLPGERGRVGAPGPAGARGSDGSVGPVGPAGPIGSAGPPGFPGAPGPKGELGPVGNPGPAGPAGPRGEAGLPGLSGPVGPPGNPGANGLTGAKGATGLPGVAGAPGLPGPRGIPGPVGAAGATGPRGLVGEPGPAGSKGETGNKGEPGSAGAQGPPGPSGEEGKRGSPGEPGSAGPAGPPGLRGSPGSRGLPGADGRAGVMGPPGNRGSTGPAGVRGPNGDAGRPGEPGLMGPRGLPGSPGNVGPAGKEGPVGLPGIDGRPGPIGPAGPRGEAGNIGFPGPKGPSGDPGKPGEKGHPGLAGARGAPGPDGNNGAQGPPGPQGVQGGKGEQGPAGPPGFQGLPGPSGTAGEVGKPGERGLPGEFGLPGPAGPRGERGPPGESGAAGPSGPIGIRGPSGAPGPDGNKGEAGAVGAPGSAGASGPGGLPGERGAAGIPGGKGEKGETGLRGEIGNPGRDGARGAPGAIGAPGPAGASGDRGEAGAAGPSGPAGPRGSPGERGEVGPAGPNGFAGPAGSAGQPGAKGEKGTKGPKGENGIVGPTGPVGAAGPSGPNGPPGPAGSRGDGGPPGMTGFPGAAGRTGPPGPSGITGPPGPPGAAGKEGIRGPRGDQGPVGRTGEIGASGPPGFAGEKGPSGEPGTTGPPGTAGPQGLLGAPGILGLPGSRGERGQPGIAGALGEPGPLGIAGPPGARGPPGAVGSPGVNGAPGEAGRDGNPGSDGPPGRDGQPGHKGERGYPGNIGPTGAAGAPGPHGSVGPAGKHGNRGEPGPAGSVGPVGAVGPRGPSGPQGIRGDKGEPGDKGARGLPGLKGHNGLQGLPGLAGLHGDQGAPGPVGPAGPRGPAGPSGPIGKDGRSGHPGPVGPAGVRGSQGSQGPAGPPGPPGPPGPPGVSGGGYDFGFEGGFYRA
Experiment: dried collagen assay
Bridge positions count the residues as written; N and C are the ends. Square brackets hold non-standard residues; d marks the D form. Primed or numbered codes have the meaning given here. Side chains are listed from the residue outwards. Ends that are not written are not given here. Gd^D = GdDOTAGA (gadolinium DOTAGA chelate); Bip = N[C@@H](Cc1ccc(-c2ccccc2)cc1)C(=O)O; Tyr(3-I) = N[C@@H](Cc1ccc(O)c(I)c1)C(=O)O; Hyp = O=C(O)[C@@H]1C[C@@H](O)CN1; Lys(Gd^T)Gd^T = not defined here; K(Gd^T)Gd^T = not defined here; Gd^T = not defined here; Gd^T″ = GdDTPA-thiourea
ENDPOINT: % bound (%)

BINDER: {Gd^T″}-GQWTCYGDEYTWYCNYE (disulfide 5-14 (inferred); not fully specified (C-terminus)) [Compound ID 826]
UNIT: %
MEASUREMENT: 71
--
BINDER: {Gd^T″}-GQWHCTTRFPHH[hTyr(Me)]CLYG (disulfide 5-14 (inferred)) [Compound ID 934]
UNIT: %
MEASUREMENT: 14
--
BINDER: {Gd^T}-PPQWHCTTRF[Hyp]HHYCLYG (disulfide 6-15; not fully specified (C-terminus); reading uncertain) [Compound ID 856]
UNIT: %
MEASUREMENT: 42
--
BINDER: {Gd^T″}-GK([Gly-Gd^T″])WHCTTYFPHHVCLYG (disulfide 5-14 (inferred)) [Compound ID 965]
UNIT: %
MEASUREMENT: 11
--
BINDER: {Gd^T″}-GQWHCTTRFPHHYCLYGK(Gd^T″) (disulfide 5-14 (inferred); not fully specified (C-terminus)) [Compound ID 807]
UNIT: %
MEASUREMENT: 45
--
BINDER: {Gd^T″}-GQWHCTTR[Bip]PHHYCLYG (disulfide 5-14) [Compound ID 881]
UNIT: %
MEASUREMENT: 28
--
BINDER: {Gd^T″}-GYK([Tyr-Gly-Gd^T″])WHCTTYFPHHYCLYG (disulfide 6-15 (inferred); not fully specified (C-terminus)) [Compound ID 981]
UNIT: %
MEASUREMENT: 81
--
BINDER: {Gd^T″}-GSWHCTTLFPHH[dY]CLYG (disulfide 5-14 (inferred); not fully specified (C-terminus)) [Compound ID 911]
UNIT: %
MEASUREMENT: 0
--
BINDER: {Gd^T″}-K(Gd^T″)K(Lys(Gd^T)Gd^T)WHCYTYFPHHYCVYG (disulfide 5-14 (inferred); reading uncertain) [Compound ID 1003]
UNIT: %
MEASUREMENT: 47
--
BINDER: {Gd^T}-GQWHCTTRFPHH[dY]CLYG (disulfide 5-14 (inferred); not fully specified (C-terminus); reading uncertain) [Compound ID 864]
UNIT: %
MEASUREMENT: 50
--
BINDER: {Gd^T}-DWTCSGDEYTWHCNYE (disulfide 4-13 (inferred); not fully specified (C-terminus); reading uncertain) [Compound ID 848]
UNIT: %
MEASUREMENT: 9
--
BINDER: {Gd^T″}-GQWHCTTLFPNHYCLYG (disulfide 5-14 (inferred)) [Compound ID 923]
UNIT: %
MEASUREMENT: 10
--
BINDER: {Gd^D}-K(Gd^D)K(Gd^D)WHCYTYFPHHYCVYG (disulfide 5-14 (inferred)) [Compound ID 1014]
UNIT: %
MEASUREMENT: 61
--
BINDER: {Gd^T″}-K(Gd^T″)K(K(Gd^T)Gd^T)GQWHCTTYFPHHYCLYG (disulfide 7-16 (inferred); reading uncertain) [Compound ID 960]
UNIT: %
MEASUREMENT: 34
--
BINDER: {Gd^T″}-GK([Gly-Gd^T″])WHC[Tyr(3-I)]TYFPHHYCLYG (disulfide 5-14 (inferred); not fully specified (C-terminus)) [Compound ID 973]
UNIT: %
MEASUREMENT: 92
--
BINDER: {Gd^T″}-GK([Gly-Gd^T″])WHCTTYFPTHYCLYG (disulfide 5-14 (inferred)) [Compound ID 962]
UNIT: %
MEASUREMENT: 10
--
BINDER: {Gd^T″}-GQWHCTTRFPHH[dT]CLYG (disulfide 5-14 (inferred); not fully specified (C-terminus)) [Compound ID 905]
UNIT: %
MEASUREMENT: 2
--
BINDER: {Gd^T″}-GDWHCTTLFPHH[dY]CLYG (disulfide 5-14 (inferred); not fully specified (C-terminus)) [Compound ID 910]
UNIT: %
MEASUREMENT: 0
--
BINDER: {Gd^T″}-GK([Gly-Gd^T″])QWHCTTYFPHHYCLYG (disulfide 6-15 (inferred)) [Compound ID 875]
UNIT: %
MEASUREMENT: 60
